All figures here come from ChEMBL document CHEMBL2346576.

Test: Inhibition of C-terminal truncated recombinant Trypanosoma cruzi trans-sialidase assessed as decrease in substrate MuNANA hydrolysis at 1 mM preincubated with enzyme for 10 mins prior to substrate addition measured after 10 mins by continuous fluorimetric assay
Consider the following compounds; for each one, report its inhibition.
Report only the number, with the unit % understood.

State the recorded inhibition for this entry: `CC(=O)N[C@H]1[C@@H](OC[C@H](N)C(=O)O)O[C@H](CO)[C@H](O)[C@@H]1O` 57

`CC(=O)N[C@H]1[C@@H](O[C@H](C)[C@@H]2NC(=O)[C@H](CC(=O)O)NC2=O)O[C@H](CO)[C@H](O)[C@@H]1O` ? 13

`CC(=O)N[C@H]1[C@@H](O[C@H](C)[C@H](N)C(=O)O)O[C@H](CO)[C@H](O)[C@@H]1O` ? 79

`CC(=O)N[C@H]1[C@@H](OC[C@@H]2NC(=O)[C@H](CC(=O)O)NC2=O)O[C@H](CO)[C@H](O)[C@@H]1O` ? 25

* * *

Test: Inhibition of C-terminal truncated recombinant Trypanosoma cruzi trans-sialidase assessed as decrease in substrate MuNANA hydrolysis preincubated with enzyme for 10 mins prior to substrate addition measured after 10 mins by continuous fluorimetric assay
measuredParameter: pIC50
Scale: negative log10 of molar concentration, which is what pIC50 denotes.

State the recorded pIC50 for this entry: `CC(=O)N[C@H]1[C@@H](O[C@H](C)[C@H](N)C(=O)O)O[C@H](CO)[C@H](O)[C@@H]1O` 3.49
